Assignment: determine reported logD for the given compounds.
measurement-description: LogD (pH 7.4)
Assay type: physicochemical
Form rule: numeric answer, no unit written next to it.

# compound COc1ccc(CNC(=O)c2c(Cl)cccc2OCC2CC2)cc1F ; its logD = 3.8

# compound COc1ccc(CNC(=O)c2c(Cl)cc[n+]([O-])c2OCC2CC2)cc1F ; its logD = 1.6

# compound O=C(NCc1ccc2c(c1)OCO2)c1c(Cl)cccc1Cl [Control 1, reference compound] ; its logD = 3.4

# compound COc1ccc(CNC(=O)c2c(Cl)ccnc2OCC2CC2)cc1F ; its logD = 3

---

measured-on: human ALDH2*2 recombinant mutant enzyme (E487K) (Homo sapiens, UniProt P05091, E504K)
Construct: His-tag (pTrcHis vector) (N); made in house; host or cells: E. coli BL21
Sequence (P05091 18-517 E504K): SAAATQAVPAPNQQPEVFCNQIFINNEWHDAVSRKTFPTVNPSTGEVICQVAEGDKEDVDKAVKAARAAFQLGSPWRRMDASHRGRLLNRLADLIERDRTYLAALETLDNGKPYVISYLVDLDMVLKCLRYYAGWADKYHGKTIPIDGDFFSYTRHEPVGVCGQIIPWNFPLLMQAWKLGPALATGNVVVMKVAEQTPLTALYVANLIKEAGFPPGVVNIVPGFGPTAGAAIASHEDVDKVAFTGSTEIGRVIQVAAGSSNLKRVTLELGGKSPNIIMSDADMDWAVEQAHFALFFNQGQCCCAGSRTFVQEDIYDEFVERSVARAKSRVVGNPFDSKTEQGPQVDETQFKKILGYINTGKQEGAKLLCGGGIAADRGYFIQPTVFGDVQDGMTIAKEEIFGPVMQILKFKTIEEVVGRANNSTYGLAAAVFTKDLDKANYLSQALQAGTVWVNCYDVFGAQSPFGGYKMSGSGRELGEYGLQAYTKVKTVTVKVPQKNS
measurement-description: ALDH2 enzymatic assay (NADH at 340 nm), recombinant mutant enzyme
Type: biochemical
Parameters: key: −: no activation or inhibition; +: activation less than control 1; ++: activation similar to control 1, within 10%; +++: activation more than control 1 and less than control (compound 161); ++++: activation similar to compound 161, within 10%
test-conditions: activation relative to benchmarks control 1 and compound 161
readout: ALDH2 (mutant)

Observe how each entry below is paired with its result.
compound: COc1ccc(CNC(=O)c2c(Cl)cccc2OCCC(C)C)cc1F [Compound 122]
ALDH2 (mutant): ++

compound: COc1ccc(CNC(=O)c2c(Cl)ccnc2Cl)c(F)c1F [Compound 174]
ALDH2 (mutant): ++

compound: COc1ccc(CNC(=O)c2c(Cl)cccc2Oc2cccc(C)c2)cc1F [Compound 131]
ALDH2 (mutant): +

compound: COc1ccc(CNC(=O)c2c(Cl)ccnc2OC(C)C)cc1F [Compound 195]
ALDH2 (mutant): ++

# compound O=C(NCc1ccc2c(c1)OCO2)c1c(Cl)cccc1NC1CCCNC1 (centres unmarked) [Compound 133] ; its ALDH2 (mutant) = +

# compound COc1ccc(CNC(=O)c2c(Cl)ccnc2OCCN(C)C)cc1F [Compound 184] ; its ALDH2 (mutant) = ++

# compound COc1ccc(CNC(=O)c2c(C(F)(F)F)ccnc2OCC2CCCC2)cc1F [Compound 230] ; its ALDH2 (mutant) = +

# compound COc1ccc(CNC(=O)c2c(Cl)cccc2OCCN(C)C)cc1F [Compound 165] ; its ALDH2 (mutant) = ++

---

measured-on: human ALDH2 wild type (Homo sapiens, UniProt P05091)
Construct: His-tag (pTrcHis vector) (N); made in house; host or cells: E. coli BL21
Sequence (P05091 18-517): as the sequence (P05091 18-517 E504K) above, with K487E counted along it
measurement-description: ALDH2 enzymatic assay (NADH at 340 nm), recombinant wild type enzyme
Format: biochemical
Design: key: −: no activation or inhibition; +: activation less than control 1; ++: activation similar to control 1, within 10%; +++: activation more than control 1 and less than control (compound 161); ++++: activation similar to compound 161, within 10%
test-conditions: activation relative to benchmarks control 1 and compound 161
readout: ALDH2 (wild-type)

Observe how each entry below is paired with its result.
compound: CC(C)Oc1ccc(CNC(=O)c2c(Cl)ccnc2NCC2CC2)cc1F [Compound 189]
recorded-result: −
//
compound: COc1ccc(CNC(=O)c2c(C)ccnc2OCC2CCCC2)cc1F [Compound 236]
recorded-result: +
//
compound: O=C(NCc1ccc2ncsc2c1)c1c(Cl)ccnc1OCC1CC1 [Compound 264]
recorded-result: −
//
compound: COc1ccc(CNC(=O)c2c(C)cccc2Br)cc1 [Compound 113]
recorded-result: +
//
compound: COc1ccc(CNS(=O)(=O)c2c(Cl)cccc2NCC2CC2)cc1F [Compound 163]
recorded-result: +

# compound COc1ccc(CNC(=O)c2c(Cl)ccnc2OCC(C)(C)C)cc1F [Compound 203] ; its ALDH2 (wild-type) = ++

# compound COc1ccc(CNC(=O)c2c(Cl)ccnc2S(=O)(=O)CC(C)C)cc1F [Compound 224] ; its ALDH2 (wild-type) = +

# compound COc1ccc(C(C)NC(=O)c2c(Cl)ccnc2OCC2CC2)cc1F (stereo not shown) [Compound 249] ; its ALDH2 (wild-type) = +

# compound COc1ccc(CNC(=O)c2c(Cl)cccc2OC2CCCC2)cc1F [Compound 146] ; its ALDH2 (wild-type) = ++

# compound COc1ccc(CNC(=O)c2c(Cl)ccnc2OCC2CCCN2)cc1F (stereo not shown) [Compound 204] ; its ALDH2 (wild-type) = +

# compound COc1ccc(CN(C)C(=O)c2c(Cl)ccnc2OCC2CC2)cc1F [Compound 247] ; its ALDH2 (wild-type) = −

# compound COc1ccc(CNC(=O)c2c(C)cccc2C)cc1F [Compound 119] ; its ALDH2 (wild-type) = −

# compound COc1ccc(CNC(=O)c2c(Cl)cccc2NCC(C)O)cc1F (stereo not shown) [Compound 159] ; its ALDH2 (wild-type) = ++

# compound COc1c(F)cc(CNC(=O)c2c(Cl)ccnc2OCC(C)C)cc1F [Compound 252] ; its ALDH2 (wild-type) = +

# compound COc1ccc(CNC(=O)c2ccccc2Cl)cc1F [Compound 121] ; its ALDH2 (wild-type) = +

# compound O=C(NCc1ccc2occc2c1)c1c(Cl)ccnc1OCC1CC1 [Compound 257] ; its ALDH2 (wild-type) = +
